target: ΔF508-CFTR (Homo sapiens, UniProt P13569, DEL508-508); construct: host or cells: CFBE41o-, doxycycline-inducible; test: CFTR cell surface levels using HRP-tagged ΔF508-CFTR expressing CFBE cells, in the presence of a co-corrector; type: cell-based; conditions: HRP-tagged ΔF508-CFTR CFBE cells, in the presence of 3 μM co-corrector; read-out: EC50
Sequence (P13569 with tags, fused parts or gaps DEL508-508): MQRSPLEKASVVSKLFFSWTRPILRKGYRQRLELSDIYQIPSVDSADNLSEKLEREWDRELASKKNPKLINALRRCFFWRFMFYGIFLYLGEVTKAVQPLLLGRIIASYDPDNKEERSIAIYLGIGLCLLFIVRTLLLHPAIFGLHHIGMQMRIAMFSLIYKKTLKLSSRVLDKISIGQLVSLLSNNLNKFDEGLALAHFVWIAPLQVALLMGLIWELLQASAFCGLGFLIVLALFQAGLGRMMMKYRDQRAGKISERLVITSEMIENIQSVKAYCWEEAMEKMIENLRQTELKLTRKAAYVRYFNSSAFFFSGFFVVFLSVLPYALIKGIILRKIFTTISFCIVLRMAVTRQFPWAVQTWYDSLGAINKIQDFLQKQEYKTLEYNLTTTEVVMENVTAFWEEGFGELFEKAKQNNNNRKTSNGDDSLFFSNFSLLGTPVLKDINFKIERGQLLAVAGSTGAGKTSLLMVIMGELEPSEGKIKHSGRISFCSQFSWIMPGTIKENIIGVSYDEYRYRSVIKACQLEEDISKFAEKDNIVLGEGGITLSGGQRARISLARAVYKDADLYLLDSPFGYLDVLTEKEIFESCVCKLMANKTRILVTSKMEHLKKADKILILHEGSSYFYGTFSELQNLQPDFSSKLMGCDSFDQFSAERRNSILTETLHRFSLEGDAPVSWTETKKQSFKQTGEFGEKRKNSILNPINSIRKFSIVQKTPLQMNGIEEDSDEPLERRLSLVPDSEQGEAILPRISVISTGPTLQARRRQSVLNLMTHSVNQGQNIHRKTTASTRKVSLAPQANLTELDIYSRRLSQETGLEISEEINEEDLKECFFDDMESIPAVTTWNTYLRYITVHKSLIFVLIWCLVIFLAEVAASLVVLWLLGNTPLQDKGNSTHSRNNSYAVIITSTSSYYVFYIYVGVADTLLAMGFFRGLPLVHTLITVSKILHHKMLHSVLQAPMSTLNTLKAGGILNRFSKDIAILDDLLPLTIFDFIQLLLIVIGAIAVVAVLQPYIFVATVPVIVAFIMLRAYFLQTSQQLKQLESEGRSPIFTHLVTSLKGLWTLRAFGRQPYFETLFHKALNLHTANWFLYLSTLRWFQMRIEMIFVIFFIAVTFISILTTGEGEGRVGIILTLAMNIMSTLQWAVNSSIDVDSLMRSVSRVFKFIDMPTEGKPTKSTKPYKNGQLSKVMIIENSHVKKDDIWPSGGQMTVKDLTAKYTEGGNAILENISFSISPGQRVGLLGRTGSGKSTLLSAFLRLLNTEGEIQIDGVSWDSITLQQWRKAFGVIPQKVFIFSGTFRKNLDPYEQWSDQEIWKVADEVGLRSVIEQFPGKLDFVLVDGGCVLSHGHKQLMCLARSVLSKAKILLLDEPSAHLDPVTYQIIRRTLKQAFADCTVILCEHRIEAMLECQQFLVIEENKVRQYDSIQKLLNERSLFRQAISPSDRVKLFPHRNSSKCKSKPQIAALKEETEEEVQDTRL
Entries whose EC50 is below 400 nM take t; entries at or above 400 nM take f.

CC(C)c1nn(-c2cccc(N(C)C)c2)c2nc(C(=O)NS(C)(=O)=O)cc(-c3cnc(N4CCC(C#N)CC4)nc3)c12; f
COCCS(=O)(=O)NC(=O)c1cc(N2CCC(N3CCOCC3)CC2)c2c(C3CCC3)nn(-c3ccccc3)c2n1; t
CC(C)c1nn(-c2ccnc(N3CCOCC3)c2)c2nc(C(=O)NS(C)(=O)=O)cc(OCC3CCOCC3)c12; t
COCC1CCN(c2cc(C(=O)NS(=O)(=O)C3CCN(C(=O)OCc4ccccc4)C3)nc3c2c(C2CCC2)nn3-c2ccccc2)CC1 (centres unmarked); t
CC(C)c1nn(C2CCCCC2)c2nc(C(=O)NS(C)(=O)=O)cc(-c3ccc(N(C)C)nc3)c12; f
CS(=O)(=O)NC(=O)c1cc(C2CCN(C3CCOCC3)CC2)c2c(C3CCC3)nn(-c3ccc(F)cc3)c2n1; t
CS(=O)(=O)NC(=O)c1cc(N2CCC(N3CCCC(C(F)(F)F)C3)CC2)c2c(C3CCC3)nn(-c3ccc(F)cc3)c2n1 (centres unmarked); t
CC(C)c1nn(-c2ccc(F)cc2)c2nc(C(=O)NS(C)(=O)=O)cc(N3CCC4(CC3)NC(=O)NC4=O)c12; f
CC(C)c1nn(-c2cccc(N3CCC(F)C3)c2)c2nc(C(=O)NS(C)(=O)=O)cc(-c3ccc(N4CCOCC4)cc3)c12 (centres unmarked); f
CN(C)S(=O)(=O)NC(=O)c1cc(C2CCN(CC3CC3)CC2)c2c(C3CCC3)nn(-c3ccc(F)cc3)c2n1; f
CS(=O)(=O)NC(=O)c1cc(N2CC3CC3C2)c2c(C3CCC3)nn(-c3ccccc3)c2n1 (centres unmarked); f
COCC1(F)CCN(c2cc(C(=O)NS(C)(=O)=O)nc3c2c(C2CCC2)nn3-c2ccccc2)CC1; t
CCOC(=O)N1CCN(C2CCN(c3cc(C(=O)NS(=O)(=O)N(C)C)nc4c3c(C3CCC3)nn4-c3ccc(F)cc3)CC2)CC1; t
CC(C)c1nn(-c2cccc(N(C)C)c2)c2nc(C(=O)NS(C)(=O)=O)cc(N3CCCCC3)c12; t
